pEC50 overview
molecular target: DYRK1A kinase (Homo sapiens (Human)); assay: DYRK1A kinase assay (Ser/Thr 18 peptide Z-lyte, FRET)
# pEC50 is unitless: minus log10 of the molar concentration; print number only

Recorded pEC50, per entry:
compound	recordedResult
[2H]C1([2H])OC([2H])([2H])C([2H])([2H])N(CC(=O)Nc2cc3cc(-c4cnn(C)c4)ccc3cn2)C1([2H])[2H] [Compound 39]	7.82
[2H]c1c([2H])c(C(=O)Nc2cc3cc(-c4cnc(C)n4C)ccc3cn2)c([2H])c([2H])c1OC [Compound 166]	8.05
[2H]c1c([2H])c([2H])c(/C=C/C(=O)Nc2cc3cc(-c4cnc(C)n4C)ccc3cn2)c([2H])c1[2H] [Compound 90]	8.40
[2H]c1c(NC(=O)CN2CCOCC2)ncc2ccc(-c3nnc(C)s3)cc12 [Compound 135]	7.39
[2H]c1c([2H])c(C([2H])([2H])[2H])c([2H])c([2H])c1C(=O)Nc1cc2cc(-c3cncn3C)ccc2cn1 [Compound 86]	8.70
[2H]C1([2H])OC([2H])([2H])C([2H])([2H])N(C(=O)Nc2cc3cc(-c4cnc(C)n4C)ccc3cn2)C1([2H])[2H] [Compound 143]	7.96
[2H]/C(C(=O)Nc1cc2cc(-c3cncn3C)ccc2cn1)=C(/[2H])c1c([2H])c([2H])c([2H])c([2H])c1[2H] [Compound 94]	8.70
[2H]c1c(NC(=O)C2CCN(C)CC2)ncc2ccc(-c3nnc(C)s3)cc12 [Compound 134]	8.22

The compound [2H]C([2H])([2H])c1ccc(C(=O)Nc2cc3cc(-c4cncn4C)ccc3cn2)cc1 [Compound 84] showed pEC50 equal to 8.70

The compound [2H]c1c([2H])c(C(=O)Nc2cc3cc(-c4cnc(C)n4C)ccc3cn2)c([2H])c([2H])c1OC([2H])([2H])[2H] [Compound 165] showed pEC50 equal to 8.22

The compound [2H]C([2H])([2H])Oc1ccc(C(=O)Nc2cc3cc(-c4cncn4C)ccc3cn2)cc1 [Compound 87] showed pEC50 equal to 8.52

The compound [2H]C([2H])([2H])C(N[C@H]1CCN(C(=O)Nc2cc3cc(-c4nnc(C)s4)ccc3cn2)C[C@@H]1F)C([2H])([2H])[2H] [Compound 139] showed pEC50 equal to 7.66

The compound [2H]c1c([2H])c([2H])c(C(=O)Nc2cc3cc(-c4cncn4C)ccc3cn2)c(Cl)c1[2H] [Compound 82] showed pEC50 equal to 8.52

The compound [2H]C1([2H])N(c2cc(C(=O)Nc3cc4cc(-c5cnc(C)n5C)ccc4cn3)ccn2)C([2H])([2H])C([2H])([2H])C([2H])([2H])C1([2H])[2H] [Compound 72] showed pEC50 equal to 8.52

* * *

molecular target: GSK3β kinase (Homo sapiens (Human), UniProt P49841); experiment: GSK3β kinase assay (Ser/Thr 09 peptide Z-lyte, FRET); details: method text calls the value IC50;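 further: Coumarin/fluorescein emission ratio converted to percent phosphorylation against unphosphorylated (0%) and phosphorylated (100%) controls, 1 h compound incubation at room temperature, 11-point threefold dilutions from 10 µM, run in duplicate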
Sequence (P49841 whole entry): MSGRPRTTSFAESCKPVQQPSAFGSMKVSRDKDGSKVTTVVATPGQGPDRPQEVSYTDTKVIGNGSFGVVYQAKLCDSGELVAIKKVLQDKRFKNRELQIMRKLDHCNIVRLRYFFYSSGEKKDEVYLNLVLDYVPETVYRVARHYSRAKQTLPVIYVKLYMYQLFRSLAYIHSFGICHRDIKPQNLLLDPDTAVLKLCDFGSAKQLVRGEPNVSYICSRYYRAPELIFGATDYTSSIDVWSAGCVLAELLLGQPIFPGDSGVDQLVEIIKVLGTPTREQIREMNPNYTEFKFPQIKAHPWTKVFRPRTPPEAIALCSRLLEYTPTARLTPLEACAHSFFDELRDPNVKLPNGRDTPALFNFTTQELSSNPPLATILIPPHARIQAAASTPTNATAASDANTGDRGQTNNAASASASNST
valueType: EC50
Entry format: amount then unit.

smilesText	EC50
[2H]C([2H])([2H])N([C@H]1CC[C@H](C(=O)Nc2cc3cc(-c4cnc(C)o4)ccc3cn2)CC1)C([2H])([2H])[2H]	21 nM
COCCN[C@H]1CC[C@H](C(=O)Nc2cc3cc(-c4cnc(C)o4)ccc3cn2)CC1	320 nM
Cc1nnc(-c2ccc3cnc(NC(=O)N4CCN(C)CC4)cc3c2)s1	68 nM
Cc1nnc(-c2ccc3cnc(NC(=O)[C@H]4CC[C@H](N5CCN(C)CC5)CC4)cc3c2)s1	12 nM
CNC1CCN(C(=O)Nc2cc3cc(-c4nnc(C)s4)ccc3cn2)CC1	99 nM
Cc1nnc(-c2ccc3cnc(NC(=O)N4CCC(N5CCOCC5)CC4)cc3c2)s1	25 nM
Cc1ncc(-c2ccc3cnc(NC(=O)[C@H]4CC[C@H](NCCF)CC4)cc3c2)o1	668 nM
Cc1ncc(-c2ccc3cnc(NC(=O)C4CCN(C)CC4)cc3c2)o1	65 nM
[2H]c1c([2H])c(C(=O)Nc2cc3cc(-c4cnc(C)n4C)ccc3cn2)c([2H])c([2H])c1Cl	3030 nM
Cn1cc(-c2ccc3cnc(NC(=O)C4CCN(C(C)(C)C)CC4)cc3c2)cn1	96 nM

The compound Cc1ncc(-c2cc(F)c3cnc(NC(=O)[C@H]4CC[C@H](C(=O)N5CCN(C)CC5)CC4)cc3c2)o1 showed EC50 equal to 1030 nM

The compound COCCN[C@H]1CC[C@H](C(=O)Nc2cc3cc(-c4cnn(C)c4)cc(F)c3cn2)CC1 showed EC50 equal to 550 nM

The compound [2H]C([2H])([2H])Oc1ccc(C(=O)Nc2cc3cc(-c4cnc(C)n4C)ccc3cn2)cc1 showed EC50 equal to 4580 nM

The compound Cc1ncc(-c2cc3cc(NC(=O)[C@H]4CC[C@H](N5CCOCC5)CC4)ncc3cc2F)o1 showed EC50 equal to 88 nM

The compound COC1CCN(CC(=O)Nc2cc3cc(-c4nnc(C)s4)ccc3cn2)CC1 showed EC50 equal to 6 nM

The compound CN1CCN(C(=O)[C@H]2CC[C@H](C(=O)Nc3cc4cc(-c5cnn(C)c5)cc(F)c4cn3)CC2)CC1 showed EC50 equal to 434 nM
